Origin of values: PubChem BioAssay (NCI)

protocol-notes: NCI Yeast Anticancer Drug Screen. Data for the mlh1 rad18 strain (AID 175)
condition-details: S. cerevisiae mlh1 rad18 strain growth inhibition; at 50.0 µM
The panel holds about 79,000 compounds, 15% with a hit somewhere; the sample as a whole holds those more often. Active and inactive are the calls of the source. Rule as the data show it: active = growth inhibition above about 70%; inactive = the rest.
Assign a class; possible classes are t for active, f for inactive

// known answers, use as guide
molecule | group-label
COc1ccc2c(c1)C(=O)/C(=C/c1ccc([N+](=O)[O-])o1)CO2 | t
CCCCCCCCC1(C(=O)OCCN(CC)CC)CCCCC1 | t
CC(=O)C1(O)C(Br)CC2C3CC=C4CC(O)CCC4(C)C3CCC21C (stereo not given) | t
Cc1cc2c(cc1O)CC[C@@H]1[C@@H]2CC[C@]2(C)[C@@H](O)CC[C@@H]12 | f
c1cnc2ccc3c4cccnc4ccc3c2c1 | t
CC(C)C(Br)CC/C(CBr)=C(\Cl)CCl (stereo not given) | f

Hi, do you know how CN(Cc1cnc2nc(N)nc(N)c2n1)c1ccc(C(=O)NC(CCC(=O)O)C(=O)O)cc1C(F)(F)F (stereo not given) came out in this test?
f

Hi, do you know how `CCCCCCCC(=O)O[C@H]1[C@H]2[C@@H](CC1(C)C)C(=O)[C@]13O[C@H]1C(=O)[C@]1(CO1)[C@]23C` came out in this test?
t

Hi, do you know how `O=C(N/N=C/c1cc(Cl)cc(Cl)c1O)c1ccccc1` came out in this test?
f

Hi, do you know how `CCOc1ccc2c(c1)[n+]([O-])c(S(=O)(=O)c1ccc(C)cc1)c(N)[n+]2[O-]` came out in this test?
t
